Could you please report measured MIC for the items listed next?
Test system: Klebsiella pneumoniae
measurement description: Antibacterial activity against Klebsiella pneumoniae […] after 24 hrs by agar streak dilution method
Assay type: functional

// query What measured MIC goes with CCN1CCN(CC2SC(c3ccc(Cl)cc3Cl)N(c3ccc(Nc4nc(Oc5cc(=O)n(C)c6ccccc56)nc(N(C)C)n4)cc3)C2=O)CC1 (stereo not given) ?
// result 25 µg/mL

// query What measured MIC goes with CCN1CCN(CC2SC(c3ccc(C(=O)O)cc3)N(c3ccc(Nc4nc(Oc5cc(=O)n(C)c6ccccc56)nc(N(C)C)n4)cc3)C2=O)CC1 (stereo not given) ?
// result 12.5 µg/mL

// query What measured MIC goes with CCN1CCN(CC2SC(c3ccc([N+](=O)[O-])cc3)N(c3ccc(Nc4nc(Oc5cc(=O)n(C)c6ccccc56)nc(N(C)C)n4)cc3)C2=O)CC1 (stereo not given) ?
// result 50 µg/mL

// query What measured MIC goes with CCN1CCN(CC2SC(c3ccc(Cl)cc3)N(c3ccc(Nc4nc(Oc5cc(=O)n(C)c6ccccc56)nc(N(C)C)n4)cc3)C2=O)CC1 (stereo not given) ?
// result 6.25 µg/mL

// query What measured MIC goes with CCN1CCN(CC2SC(c3ccc(O)cc3)N(c3ccc(Nc4nc(Oc5cc(=O)n(C)c6ccccc56)nc(N(C)C)n4)cc3)C2=O)CC1 (stereo not given) ?
// result 50 µg/mL
